# measured.on: Ba/F3 (EGFR^del19/T790M/C797S) triple-mutant cells (Homo sapiens, UniProt P00533, T790M/C797S, cells depend on it, form not given)
# Sequence (P00533 with tags, fused parts or gaps DEL746-750/T790M/C797S, form open): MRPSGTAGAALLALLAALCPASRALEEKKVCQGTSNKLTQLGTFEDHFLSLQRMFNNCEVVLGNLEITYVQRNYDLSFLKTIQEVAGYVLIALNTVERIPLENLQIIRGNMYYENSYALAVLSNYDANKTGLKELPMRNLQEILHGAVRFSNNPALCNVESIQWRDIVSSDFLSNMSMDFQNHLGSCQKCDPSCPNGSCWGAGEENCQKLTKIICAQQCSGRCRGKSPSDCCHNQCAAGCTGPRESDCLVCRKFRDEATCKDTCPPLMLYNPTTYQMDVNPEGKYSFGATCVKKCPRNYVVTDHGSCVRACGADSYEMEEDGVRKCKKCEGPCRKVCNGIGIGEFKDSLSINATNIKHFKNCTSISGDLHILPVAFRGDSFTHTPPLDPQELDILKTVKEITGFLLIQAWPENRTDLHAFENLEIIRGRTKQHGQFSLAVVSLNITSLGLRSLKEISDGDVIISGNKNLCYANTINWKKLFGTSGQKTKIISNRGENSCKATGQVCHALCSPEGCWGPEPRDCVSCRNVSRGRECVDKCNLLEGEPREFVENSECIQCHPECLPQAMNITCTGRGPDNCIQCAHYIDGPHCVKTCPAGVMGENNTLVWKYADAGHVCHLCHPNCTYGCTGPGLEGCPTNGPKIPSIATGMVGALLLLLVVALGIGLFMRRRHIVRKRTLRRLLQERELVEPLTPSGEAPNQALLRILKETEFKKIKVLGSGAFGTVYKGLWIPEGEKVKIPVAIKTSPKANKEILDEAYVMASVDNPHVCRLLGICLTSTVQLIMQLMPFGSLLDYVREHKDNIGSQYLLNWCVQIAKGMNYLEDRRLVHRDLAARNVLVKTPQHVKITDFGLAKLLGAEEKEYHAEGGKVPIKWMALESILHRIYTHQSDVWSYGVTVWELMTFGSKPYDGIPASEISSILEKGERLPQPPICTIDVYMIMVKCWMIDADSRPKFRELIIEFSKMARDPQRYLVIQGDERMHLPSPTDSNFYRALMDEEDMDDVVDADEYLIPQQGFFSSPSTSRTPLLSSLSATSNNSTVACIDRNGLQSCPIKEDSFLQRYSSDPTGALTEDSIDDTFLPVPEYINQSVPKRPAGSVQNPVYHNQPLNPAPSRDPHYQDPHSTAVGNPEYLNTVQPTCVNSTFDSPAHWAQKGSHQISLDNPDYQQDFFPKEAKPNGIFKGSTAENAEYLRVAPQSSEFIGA
# experiment.summary: Antiproliferative activity against Ba/F3 (EGFR del19/T790M/C797S) triple-mutant cells, Cell Titer Glow
# Type: cell-based
# conditions: three days after addition of compounds; read-out: Antiproliferative activity BaF3(EGFR^del19/T790M/C797S) IC50
# Experimental: Antiproliferative Activity of the Compounds Disclosed Herein Against Ba/F3 (EGFR^del19/T790M/C797S) Triple-Mutant Cells and A431 (EGFR WT) Cells • 3000 Ba/F3 cells carrying EGFR (del19/T790M/C797S) or 2000 A431 cells were seeded in a 384-well plate. […] Three days after the addition of the compounds, Cell Titer Glow was added to evaluate cell growth and the percentage cell growth inhibition by the compounds and the IC50 values were calculated.
reported.metric: GI50 (µM)

Examples from the recorded data:
CN1CCC(c2ccc(Nc3nc(NC4CCOCC4)c(-c4ccncc4)nc3C(N)=O)cc2)CC1	0.07
CN1CCN(C2CCN(c3ccc(Nc4nc(NC5CCOCC5)c(-c5ccncc5)nc4C(N)=O)cc3F)CC2)CC1	0.04
CN1CCN(C2CCN(c3ccc(Nc4nc(NCC(C)(C)O)c(-c5cccc6[nH]ccc56)nc4C(N)=O)cc3)CC2)CC1	0.013
CCc1cc(Nc2nc(NC3CC4(COC4)C3)c(-c3cc[nH]n3)nc2C(N)=O)ccc1N1CCC(N2CCN(C)CC2)CC1	0.061

I = CN1CCN(C2CCN(c3ccc(Nc4nc(NC5CC5)c(-c5cccc6[nH]ccc56)nc4C(N)=O)cc3)CC2)CC1
II = CN1CCN(C2CCN(c3ccc(Nc4nc(NC5CCOCC5)c(-c5ccccc5)nc4C(N)=O)cc3)CC2)CC1
Lookup: Hello, I am sorting some records. Could you say if I or II has the smaller GI50 value? // output: label of the selected item
Found: I
(I: 0.002 µM, II: 0.236 µM)

1 = CN1CCN(C2CCN(c3ccc(Nc4nc(NC5CCOCC5)c(-c5ccccc5N(C)C)nc4C(N)=O)cc3)CC2)CC1
2 = CN1CCN(C2CCN(c3ccc(Nc4nc(NCC(C)(C)O)c(-c5ccccc5)nc4C(N)=O)cc3)CC2)CC1
Lookup: Field: lower GI50 | Options: 1 / 2 Field: selected label. Fill in the label of the entry you choose.
Found: 2

a = CCc1cc(Nc2nc(NC3CCOCC3)c(-c3ccncc3)nc2C(N)=O)ccc1N1CCC(N2CCN(C)CC2)CC1
b = CN1CCN(C2CCN(c3ccc(Nc4nc(N[C@@H]5CCC[C@H](O)C5)c(-c5ccccc5)nc4C(N)=O)cc3)CC2)CC1
Lookup: // max by GI50 over [ a , b ] Which one? Tell me its label.
Found: a
(a: 0.054 µM, b: 0.027 µM)

Where do the numbers come from? From patent US12600714B2.
